Item-by-item account of pest or weed control at 250 g/ha
# Tested on: Lolium perenne (LOLPE)
# Test protocol: Pre-emergence herbicidal activity, glasshouse pot test
# Assay type: in vivo
# Details: 312 h, Rate 250 g/ha, evaluated after 13 days, 100=total damage to plant, 0=no damage to plant
Provide only the numeric value, understood in %.

Would you kindly share the measured pest or weed control at 250 g/ha for "Cc1cc(Oc2ncccc2Cl)cc(C)c1C1=C(O)CCCC1=O" ?
0

Would you kindly share the measured pest or weed control at 250 g/ha for "CCc1cc(Oc2cnc3cc(Cl)ccc3n2)ccc1C1=C(O)C(C)(C)OC(C)(C)C1=O" ?
100

Would you kindly share the measured pest or weed control at 250 g/ha for "CCc1cc(Oc2ccc(Cl)cc2Cl)ccc1C1=C(O)C(C)(C)OC(C)(C)C1=O" ?
70

Next:
Would you kindly share the measured pest or weed control at 250 g/ha for "CCc1cc(Oc2ccc(Cl)cc2)ccc1C1=C(O)C(C)(C)OC(C)(C)C1=O" ?
60

---

# System: Echinochloa crus-galli (ECHCG)
# Test protocol: Pre-emergence herbicidal activity, glasshouse pot test
# Type: in vivo
# Details: 312 h, Rate 250 g/ha, evaluated after 13 days, 100=total damage to plant, 0=no damage to plant
Measurement name: pest or weed control at 250 g/ha (%)
Provide only the numeric value, understood in %.

Sample answers from the record:
Would you kindly share the measured pest or weed control at 250 g/ha for CCc1cc(Oc2ccc(Br)cc2)ccc1C1=C(O)C(C)(C)OC(C)(C)C1=O [Compound A-5] ?
40

Would you kindly share the measured pest or weed control at 250 g/ha for CCc1cc(Oc2cnc3cc(Cl)ccc3n2)ccc1C1=C(O)C(C)(C)OC(C)(C)C1=O [Compound A-10] ?
100

Would you kindly share the measured pest or weed control at 250 g/ha for CCc1cc(Oc2ccc(C(F)(F)F)cn2)ccc1C1=C(O)C(C)(C)OC(C)(C)C1=O [Compound A-9] ?
30

We now examine a further molecule.
Would you kindly share the measured pest or weed control at 250 g/ha for CCc1cc(Oc2ncc(C(F)(F)F)cc2Cl)ccc1C1=C(O)C(C)(C)OC(C)(C)C1=O [Compound A-11] ?
100

---

# Test system: Echinochloa crus-galli (ECHCG)
# Test protocol: Pre-emergence herbicidal activity, glasshouse pot test
# Format: in vivo
# Details: 312 h, Rate 250 g/ha, evaluated after 13 days, 100=total damage to plant, 0=no damage to plant
Measurement name: pest or weed control at 250 g/ha (%)
Provide only the numeric value, understood in %.

Would you kindly share the measured pest or weed control at 250 g/ha for CCc1cc(Oc2ncc(Cl)cc2F)ccc1C1=C(O)C(C)(C)OC(C)(C)C1=O [Compound A-8] ?
100

Would you kindly share the measured pest or weed control at 250 g/ha for CCc1cc(Oc2ccc(F)cc2)ccc1C1=C(O)C(C)(C)OC(C)(C)C1=O [Compound A-6] ?
100

Would you kindly share the measured pest or weed control at 250 g/ha for Cc1cc(Oc2ncccc2Cl)cc(C)c1C1=C(O)CCCC1=O [Compound A-16] ?
0

We now examine a further molecule.
Would you kindly share the measured pest or weed control at 250 g/ha for CCc1cc(Oc2ccc(Cl)cc2Cl)ccc1C1=C(O)C(C)(C)OC(C)(C)C1=O [Compound A-2] ?
50
